experiment: Bidirectional Caco2 permeability assay, 24-well format; format: in vitro ADME; conditions: human, Caco-2
observation type: Papp A→B (×10⁻⁶ cm/s)

molecule	observation type	value
CN=S(=O)(c1ccccc1)N1CCCCC1 (stereo not shown)	Papp A→B	40.4
O=S(=Nc1cccc(F)c1)(c1ccccc1)N1CCCCC1 (stereo not shown)	Papp A→B	25.2
O=S(=NC(F)(F)F)(c1ccccc1)N1CCCCC1 (stereo not shown)	Papp A→B	19.2
CS(=O)(=O)N=S(=O)(c1ccccc1)N1CCCCC1 (stereo not shown)	Papp A→B	36.3

====

assay: Bidirectional Caco2 permeability assay, 24-well format; format: in vitro ADME; settings: human, Caco-2

compound	efflux ratio
CS(=O)(=O)N=S(=O)(c1ccccc1)N1CCCCC1 (stereo not shown)	0.67
CN=S(=O)(c1ccccc1)N1CCCCC1 (stereo not shown)	0.57
O=S(=NC(F)(F)F)(c1ccccc1)N1CCCCC1 (stereo not shown)	0.7
O=S(=Nc1cccc(F)c1)(c1ccccc1)N1CCCCC1 (stereo not shown)	0.45

====

test: Hydrolytic stability; type: physicochemical; details: pH 10 (sodium borate buffer), 24 hours with stirring
Measured Recovery [%] (pH) by item

compound	Recovery [%] (pH)
CS(=O)(=O)N=S(=O)(c1ccccc1)N1CCCCC1 (stereo not shown) [2 ea]	100 (1) 100 (7) 100 (10) %
O=S(=NC(F)(F)F)(c1ccccc1)N1CCCCC1 (stereo not shown) [2 cs]	91%
O=S(=Nc1cccc(F)c1)(c1ccccc1)N1CCCCC1 (stereo not shown) [2 bc]	100 (1) 100 (7) 100 (10) %
CN=S(=O)(c1ccccc1)N1CCCCC1 (stereo not shown) [2 cm]	100 (1) 100 (7) 100 (10) %

====

assay: logD by reversed-phase HPLC; format: physicochemical; conditions: pH 7.5
Measured chromatographic logD by item
observation type: chromatographic logD

compound	value
O=S(=Nc1cccc(F)c1)(c1ccccc1)N1CCCCC1 (stereo not shown) [2 bc]	4.3
O=S(=NC(F)(F)F)(c1ccccc1)N1CCCCC1 (stereo not shown) [2 cs]	3.7
CS(=O)(=O)N=S(=O)(c1ccccc1)N1CCCCC1 (stereo not shown) [2 ea]	2
CN=S(=O)(c1ccccc1)N1CCCCC1 (stereo not shown) [2 cm]	2.4

====

Measured Recovery [%] (pH) by item
assay: Hydrolytic stability; format: physicochemical; conditions: pH 1 (HCl buffer), 24 hours with stirring

molecule	Recovery [%] (pH)
O=S(=Nc1cccc(F)c1)(c1ccccc1)N1CCCCC1 (stereo not shown) [2 bc]	100 (1) 100 (7) 100 (10) %
CN=S(=O)(c1ccccc1)N1CCCCC1 (stereo not shown) [2 cm]	100 (1) 100 (7) 100 (10) %
CS(=O)(=O)N=S(=O)(c1ccccc1)N1CCCCC1 (stereo not shown) [2 ea]	100 (1) 100 (7) 100 (10) %
O=S(=NC(F)(F)F)(c1ccccc1)N1CCCCC1 (stereo not shown) [2 cs]	56%

====

test: Hydrolytic stability; type: physicochemical; details: pH 7 (phosphate-buffered saline), 24 hours with stirring
observation type: Recovery [%] (pH)

molecule	value
CS(=O)(=O)N=S(=O)(c1ccccc1)N1CCCCC1 (stereo not shown)	100 (1) 100 (7) 100 (10) %
O=S(=Nc1cccc(F)c1)(c1ccccc1)N1CCCCC1 (stereo not shown)	100 (1) 100 (7) 100 (10) %
CN=S(=O)(c1ccccc1)N1CCCCC1 (stereo not shown)	100 (1) 100 (7) 100 (10) %
O=S(=NC(F)(F)F)(c1ccccc1)N1CCCCC1 (stereo not shown)	100%

====

assay: Metabolic stability assay, pooled mouse liver microsomes; format: in vitro ADME; conditions: predicted maximum oral bioavailability

compound	unit abbreviation	F max (h/r/m)-LMs [%]
O=S(=Nc1cccc(F)c1)(c1ccccc1)N1CCCCC1 (stereo not shown)	%	16
CS(=O)(=O)N=S(=O)(c1ccccc1)N1CCCCC1 (stereo not shown)	%	83
O=S(=NC(F)(F)F)(c1ccccc1)N1CCCCC1 (stereo not shown)	%	9.3
CN=S(=O)(c1ccccc1)N1CCCCC1 (stereo not shown)	%	47

====

experiment: Metabolic stability assay, pooled rat liver microsomes; type: in vitro ADME; details: predicted maximum oral bioavailability

compound	F max (h/r/m)-LMs [%], %
CN=S(=O)(c1ccccc1)N1CCCCC1 (stereo not shown)	18
O=S(=NC(F)(F)F)(c1ccccc1)N1CCCCC1 (stereo not shown)	10
O=S(=Nc1cccc(F)c1)(c1ccccc1)N1CCCCC1 (stereo not shown)	0.5
CS(=O)(=O)N=S(=O)(c1ccccc1)N1CCCCC1 (stereo not shown)	33
